Target: PAK4 Catalytic Domain (Homo sapiens, UniProt O96013)
Construct: For all of them, we expressed and purified the catalytic domain separately; His-tag; made in house; host or cells: Escherichia coli
Sequence (O96013 321-572 limits assumed): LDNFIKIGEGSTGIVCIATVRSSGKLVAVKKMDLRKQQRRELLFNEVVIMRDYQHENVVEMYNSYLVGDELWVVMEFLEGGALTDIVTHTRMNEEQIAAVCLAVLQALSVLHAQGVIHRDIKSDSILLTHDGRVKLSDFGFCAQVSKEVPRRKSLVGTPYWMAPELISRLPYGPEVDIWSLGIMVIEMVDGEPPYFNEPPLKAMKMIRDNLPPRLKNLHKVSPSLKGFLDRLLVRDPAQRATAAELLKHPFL
Assay: Differential Scanning Fluorimetry (DSF) Tm shift
Format: binding
Details: 2 µM protein, 10 µM inhibitor, average of 3 experiments, each in duplicate
ASSAY_READOUT: Melting temperature (Tm) shift (degrees Celcius)
Numeric answer only, unit degrees Celcius assumed.

CC[C@@H](CO)Nc1nc(NCc2ccccc2)c2ncn(C(C)C)c2n1 (single isomer, unassigned) [Roscovitine, (S)-Isomer]: 1.4

I'd like to know its Melting temperature (Tm) shift. The molecule in question is CCN(CC)C(=O)c1ccc(Nc2nc(OCC3CCCCC3)c3[nH]cnc3n2)cc1 [Cdk2 Inhibitor IV, NU6140] 5.1

Consider next the molecule CN(C)c1nc2c(Br)c(Br)c(Br)c(Br)c2[nH]1 [Casein Kinase II Inhibitor II, DMAT] in the same way. 0.2

Consider next the molecule N#CC(c1ccnc(NCCc2cccnc2)n1)c1nc2ccccc2s1 (centres unmarked) [JNK Inhibitor V] in the same way. 0.1
